system under test: CDK2 (UniProt P24941)
experiment notes: Enzyme Assay
pIC50: −log10 of the molar value.
Catalogue of pIC50 values

# structure, pIC50
rows = [
    ("O=C(Nc1cccc2c1C(=O)c1c(-c3ccc(CN4CCOCC4)cc3)n[nH]c1-2)NN1CCOCC1", "> 7.00"),
    ("CC(C)c1nn(-c2c(Cl)cccc2Cl)c2nc(Cc3ccc(OCC(C)(C)O)cc3)[nH]c(=O)c12", "> 7.00"),
    ("CC(C)c1nn(-c2c(Cl)cc(Cl)cc2Cl)c2nc(Cc3ccc(CNC(CO)CO)n3C)[nH]c(=O)c12", "> 8.00"),
    ("CC(C)N1CCN(C(=O)COc2ccc(-c3n[nH]c4c3C(=O)c3c(NC(=O)NN5CCOCC5)cccc3-4)cc2)CC1", "> 7.00"),
]

Next molecule, pIC50 to be filled in.
Any idea what pIC50 was measured for O=C(Nc1cccc2c1C(=O)c1c(-c3ccc(CN4CCN(c5cccc(C(F)(F)F)c5)CC4)cc3)n[nH]c1-2)NN1CCOCC1 ?
> 7.00
